# Test Name: Quantitative highthroughput screen to assess conditional lethalithy of P12 Ichikawa cells grown in RPMI1640 with untreated serum (RPMI+s) (AID 1963881); also: nearly all actives have a fitted effect of over 35% in size;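 as to viability: 100% = DMSO wells and 0% = empty wells without cells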
# Test Settings: ATP luminescence, 48 h; viability; series mostly up to 45.8 µM
Inconclusive results are not listed. Calls of active or inactive are those of the source. Calls follow the shape of the dose curve; as a rule, active = well fitted cell-killing curve with a large enough effect; inconclusive = small, poorly fitted or top-dose-only effect; inactive = flat fitted curve, though single readings scatter.
Outcome (select one): 1 for active, -1 for inactive

Recorded results for 3 molecules are shown here.
COc1ccc(C=CC(=O)Nc2ccccc2C(=O)O)cc1OC    -1
Cc1cnc(-c2cc(N3CCN(C(=O)CCS(C)(=O)=O)CC3)ncc2Cl)c(C)c1    -1
C[C@@H]1CCO[C@H]2Cn3cc(C(=O)NCc4ccc(F)cc4F)c(=O)c(O)c3C(=O)N12    -1

Q: Give the logged outcome of this assay for the following molecule: `NNc1nncc2ccccc12`
Ans: -1

Q: Give the logged outcome of this assay for the following molecule: `O=C(CCCCCCC(=O)Nc1ccc([C@H]2O[C@@H](CSc3nc(-c4ccccc4)c(-c4ccccc4)o3)C[C@@H](c3ccc(CO)cc3)O2)cc1)NO`
Ans: 1

Q: Give the logged outcome of this assay for the following molecule: N#CC(c1ccc(Cl)cc1)c1c(Cl)cc(-n2ncc(=O)[nH]c2=O)cc1Cl (stereo not given)
Ans: -1

Q: Give the logged outcome of this assay for the following molecule: CN(CCOc1ccc(CC2SC(=O)NC2=O)cc1)c1ccccn1 (stereo not given)
Ans: -1

Q: Give the logged outcome of this assay for the following molecule: `Cn1cnc(=N)c2[nH]cnc21`
Ans: 1

Q: Give the logged outcome of this assay for the following molecule: `O=C1NC(=O)C(=Cc2ccc(-c3ccc(F)cc3O)o2)S1`
Ans: 1

Q: Give the logged outcome of this assay for the following molecule: `O=C(NCCO[N+](=O)[O-])c1cccnc1`
Ans: -1
